Biological target: T1, human programmed cell death protein 1 (hPD-1) C93S (aa 24-167) (Homo sapiens, UniProt Q15116, C93S)
T1 construct: made as a fusion with a TEV site and human Fc; the Fc was cut off with TEV protease; source: Expi293F, purified (Protein A, TEV cleavage of Fc, SEC; monomer fractions); not shown: Fc (human), C-terminal, cleaved
T1 sequence (Q15116 24-167 C93S): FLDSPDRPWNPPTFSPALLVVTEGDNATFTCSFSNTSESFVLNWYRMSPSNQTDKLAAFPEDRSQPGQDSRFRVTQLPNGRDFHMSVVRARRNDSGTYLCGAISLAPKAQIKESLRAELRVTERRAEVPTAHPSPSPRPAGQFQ
Assay: SPR; Carterra LSA; Fab from the ammonium sulfate precipitate of the culture supernatant immobilised on a NiHC200M chip; hPD-1 (1-1024 nM) or mPD-1-Fc (4-1024 nM) as analyte, fourfold dilution series, no regeneration; HBS-EP pH 7.4, 25 °C; medians over the spots of a construct, KD = koff/kon
Details: one partner purified
Here the recorded koff is given for each entry.
Quick note: give the figure in s⁻¹, leave out the unit.

- toripalimab Fab H.V104Y (Fab, V domains shown, heavy chain of Sm3 with this change; numbers count from the chain's first residue; as the light chain of Sm3; source: Brevibacillus, culture supernatant (ammonium sulfate precipitate); not shown: 6xHis, C-terminal, kept; 6xHN, C-terminal, kept) VH: QGQLVQSGAEVKKPGASVKVSCKASGYTFTDYEMHWVRQAPIHGLEWIGVIESETGGTAYNQKFKGRVTITADKSTSTAYMELSSLRSEDTAVYYCAREGITTYATTYYWYFDVWGQGTTVTVSS VL: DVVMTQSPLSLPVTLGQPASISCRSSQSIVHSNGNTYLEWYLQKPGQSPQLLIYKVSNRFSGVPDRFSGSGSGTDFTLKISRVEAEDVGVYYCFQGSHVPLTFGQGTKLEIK: 1.81e-05

Then there is this binder:
# get_value(readout='koff', item= toripalimab Fab L.L101K (Fab, V domains shown, as the heavy chain of Sm3; light chain of Sm3 with this change; numbers count from the chain's first residue; source: Brevibacillus, culture supernatant (ammonium sulfate precipitate); not shown: 6xHis, C-terminal, kept; 6xHN, C-terminal, kept) VH: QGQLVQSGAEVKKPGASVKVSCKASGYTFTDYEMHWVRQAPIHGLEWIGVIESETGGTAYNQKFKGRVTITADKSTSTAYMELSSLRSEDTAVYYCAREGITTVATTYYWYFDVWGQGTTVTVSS VL: DVVMTQSPLSLPVTLGQPASISCRSSQSIVHSNGNTYLEWYLQKPGQSPQLLIYKVSNRFSGVPDRFSGSGSGTDFTLKISRVEAEDVGVYYCFQGSHVPKTFGQGTKLEIK ) 0.00276
